- targetUnderTest: UniProt O60725
- Sequence (O60725 whole entry, the tested form may be a part): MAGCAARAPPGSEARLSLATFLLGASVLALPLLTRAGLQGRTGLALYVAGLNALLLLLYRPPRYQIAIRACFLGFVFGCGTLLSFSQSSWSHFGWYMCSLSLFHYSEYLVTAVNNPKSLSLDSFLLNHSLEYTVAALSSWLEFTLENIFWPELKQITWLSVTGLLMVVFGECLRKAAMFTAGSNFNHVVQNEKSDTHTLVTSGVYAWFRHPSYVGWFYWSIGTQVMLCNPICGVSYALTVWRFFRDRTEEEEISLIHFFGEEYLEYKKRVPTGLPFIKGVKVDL
- protocolNotes: Inhibition of human isoprenylcysteine carboxyl methyltransferase expressed in yeast His10myc3N-Icmt membranes using AFC substrate and [14C]-SAM and incubated for 30 mins by liquid scintillation counting based methyltransferase vapor diffusion assay
metric: IC50

c1csc(C(c2ccc3ccccc3c2)C2CCNCC2)c1 (stereo unspecified) :: > 50 µM
c1ccc(C(=C2CCOCC2)c2ccc3ccccc3c2)cc1 :: > 50 µM
Oc1c(C(=C2CCOCC2)c2cccs2)ccc2ccccc12 :: 7.7 µM
Oc1c(C(c2cccs2)C2CCOCC2)ccc2ccccc12 (stereo unspecified) :: 18 µM

The molecule identified as `COC(=O)CCSC/C=C(\C)CCn1cc(CCc2ccc(-c3ccccc3)cc2)nn1` registered its IC50 at 0.4 µM

Memo: `O=C(c1ccc2ccccc2c1)C1CCOCC1` , reported IC50: > 50 µM

IC50 reported for this molecule `c1ccc(C(=C2CCOCC2)c2cccs2)cc1` : > 50 µM

The recorded IC50 for `c1ccc2cc(CC3CCOCC3)ccc2c1` is > 50 µM

The recorded IC50 for OC(c1ccccc1)(c1cccs1)C1CCOCC1 (stereo unspecified) is > 50 µM

Item: CN1CCC(C(c2ccc3ccccc3c2)c2cccs2)CC1 (stereo unspecified) | IC50: > 50 µM

Reported IC50 ( Oc1c(C(c2cccs2)C2CCOCC2)ccc2cccnc12 (stereo unspecified) ) = 14 µM
